Listing: Activity of selected molecules
# Test system: MDA-MB-231
# Test Details: Antiproliferative activity against human MDA-MB-231 cells assessed as reduction in cell viability at 20 uM measured after 48 hrs by CCK-8 method relative to control
# Type: functional

{"Molecule": "O=C(c1cccc2ccccc12)N1CCN(c2ccc(OC(F)(F)F)cc2)CC1", "Assayed System": "MDA-MB-231", "Activity [%]": 19}
{"Molecule": "O=C(c1cccc2ccccc12)N1CCN(c2ccc(C(F)(F)F)cc2)CC1", "Assayed System": "MDA-MB-231", "Activity [%]": 3}
{"Molecule": "C[C@@H]1[C@H](C)N(c2ccccc2)CCN1C(=O)c1cccc2ccccc12 (racemic)", "Assayed System": "MDA-MB-231", "Activity [%]": 16}
{"Molecule": "CN(C)c1ccc(N2CCN(C(=O)c3cccc4ccccc34)CC2)cc1", "Assayed System": "MDA-MB-231", "Activity [%]": 0}
{"Molecule": "O=C(c1cccc2ccccc12)N1CCN(c2ccc(-c3ccccc3)cc2)CC1", "Assayed System": "MDA-MB-231", "Activity [%]": -6}
{"Molecule": "O=C(OC(C(F)(F)F)C(F)(F)F)N1CCC(C(O)(c2ccc3c(c2)OCO3)c2ccc3c(c2)OCO3)CC1", "Assayed System": "MDA-MB-231", "Activity [%]": 31}
{"Molecule": "O=C(c1cccc2ccccc12)N1CCN(c2ccc(Cl)cc2)CC1", "Assayed System": "MDA-MB-231", "Activity [%]": 3}
{"Molecule": "O=C(c1cccc2ccccc12)N1CCN(c2ccc([N+](=O)[O-])cc2)CC1", "Assayed System": "MDA-MB-231", "Activity [%]": -3}

Reference for the values: ChEMBL document CHEMBL6127024
